System: M. tb, strain H37Rv
Experiment: LORA minimum inhibitory concentration assay (hypoxic)
Type: cell-based
Settings: Mycobacterium tuberculosis
Exam item: assign YES to entries whose MIC is below 8 µM and NO to entries at or above 8 µM. Note that a value of exactly 8 µM receives NO.

# Compound, Label
measured = [
    ("O=[N+]([O-])c1cn2c(n1)O[C@H](COc1ccc(-c3ccc(OC(F)(F)F)cc3)nc1)CC2", "YES"),
    ("CC1(CN2CCC(Oc3ccc(F)cc3)CC2)CCn2cc([N+](=O)[O-])nc2O1 (centres unmarked)", "NO"),
    ("CC1(COCc2ccc(-c3ccc(OC(F)(F)F)cc3)cc2)CCn2cc([N+](=O)[O-])nc2O1 (centres unmarked)", "YES"),
    ("O=[N+]([O-])c1cn2c(n1)OC(COc1ccc(-c3ccc(F)cc3)cc1)CC2 (centres unmarked)", "NO"),
    ("CC1(CN2CCC(c3ccc(F)cc3)CC2)CCn2cc([N+](=O)[O-])nc2O1 (centres unmarked)", "NO"),
    ("O=[N+]([O-])c1cn2c(n1)OC(COc1cnc(-c3ccc(F)cc3)nc1)CC2 (centres unmarked)", "NO"),
    ("O=[N+]([O-])c1cn2c(n1)OC(CN1CCC(Oc3ccc(F)cc3)CC1)CC2 (centres unmarked)", "NO"),
    ("CC1(COc2ccc(-c3ccc(F)cc3F)nc2)CCn2cc([N+](=O)[O-])nc2O1 (centres unmarked)", "YES"),
]

====

System: M. tb, strain H37Rv
Experiment: MABA minimum inhibitory concentration assay (aerobic)
Format: cell-based, Mycobacterium tuberculosis
Settings: Mycobacterium tuberculosis, H37RV, aerobic; read-out: MIC MABA

# Molecule, MIC / µM
measured = [
    ("O=[N+]([O-])c1cn2c(n1)OC(COCc1ccc(-c3ccc(OC(F)(F)F)cc3)cc1)CC2 (stereo not shown)", 0.055),
    ("CC1(COc2ccc(-c3ccc(OC(F)(F)F)cc3)nc2)CCn2cc([N+](=O)[O-])nc2O1 (stereo not shown)", 0.05),
    ("O=[N+]([O-])c1cn2c(n1)OC(COc1ccc(-c3ccc(F)cn3)cn1)CC2 (stereo not shown)", 0.15),
    ("O=[N+]([O-])c1cn2c(n1)OC(COCc1ccc(-c3ccc(F)cc3)cc1)CC2 (stereo not shown)", 0.08),
]

====

# MIC per record follows
System: M. tb, strain H37Rv
Test: LORA minimum inhibitory concentration assay (hypoxic)
Assay type: cell-based
Conditions: Mycobacterium tuberculosis
Experimental Endpoint: MIC (µM)

# Compound, Relation, Experimental Value
data = [
    ("O=[N+]([O-])c1cn2c(n1)OC(COc1ccc(-c3ccc(C(F)(F)F)nc3)cn1)CC2 (centres unmarked) [compound 111]", "=", 2.5),
    ("O=[N+]([O-])c1cn2c(n1)OC(COc1ccc(-c3ccc(F)nc3)nc1)CC2 (centres unmarked) [compound 112]", "=", 21),
    ("CC1(COCc2ccc(-c3ccc(F)cc3)cc2)CCn2cc([N+](=O)[O-])nc2O1 (centres unmarked) [compound 27]", "=", 0.61),
    ("CC1(CN2CCN(c3ccc(F)cc3)CC2)CCn2cc([N+](=O)[O-])nc2O1 (centres unmarked) [compound 144]", "=", 6.8),
    ("CC1(COCc2ccc(OC(F)(F)F)cc2)CCn2cc([N+](=O)[O-])nc2O1 (centres unmarked) [compound 21]", "=", 3.3),
    ("CC1(COc2cccc(-c3ccc(F)cc3)n2)CCn2cc([N+](=O)[O-])nc2O1 (centres unmarked) [compound 101]", "=", 5),
    ("O=[N+]([O-])c1cn2c(n1)OC(COc1ccc(-c3ccc(F)nc3)cn1)CC2 (centres unmarked) [compound 107]", "=", 15),
    ("CC1(COc2ccc(OCc3ccccc3)cc2)CCn2cc([N+](=O)[O-])nc2O1 (centres unmarked) [compound 47]", ">", 128),
]
